Origin of the recorded values: ChEMBL document CHEMBL1201862

- Tested on: MCF7
- Assay remarks: NCI tumour cell line growth inhibition, 48 h
Active and inactive are the calls of the source. Rule as the data show it: active = GI50 up to about 1.1 µM and inactive = higher.
Assay endpoint: GI50

Guide cases for GI50, answers given:
I would be grateful if you could share the reported GI50 for COC(=O)CN1CCN(c2cccc3c2CCCC3)CC1 .
37 µM (inactive)

I would be grateful if you could share the reported GI50 for N#CC12C(=O)NC(=O)C1(C#N)C1C=CC2CC1 (stereo unspecified) .
> 100 µM (inactive)

For every record below, what is its GI50?
1. Cc1cc(C(=O)CCCCOc2ccc(C3=NCCO3)cc2)c(C)n1C
2. Brc1c(C#CCC(c2ccccc2)(c2ccccc2)c2ccccc2)ccc(C#CCC(c2ccccc2)(c2ccccc2)c2ccccc2)c1Br

["33.3 µM (inactive)", "> 100 µM (inactive)"]

For every record below, what is its GI50?
1. CC(C)CCOC(=O)NC(Nc1ccc(F)cc1)(C(F)(F)F)C(F)(F)F
2. CC(=O)c1c2c(cc3c1CC1(Cc4cc5c(cc4C1)CCC5)C3)CCC2

["23.2 µM (inactive)", "> 100 µM (inactive)"]

For every record below, what is its GI50?
1. COC(=O)Cc1ccc2c(cnn2-c2ccccc2)c1OC
2. CCOC(=O)CSc1nnc(C(Sc2nc(-c3ccccc3)c(-c3ccccc3)[nH]2)C(C)C)n1-c1ccccc1 (stereo unspecified)
3. N#CI1OC(=O)c2ccccc21
4. Cc1nc(Cc2n[nH]c(C)n2)n[nH]1
5. Cc1oc2nc(N(C)C)n3c(C)nnc3c2c1C

["> 10 µM (inactive)", "34.7 µM (inactive)", "60.7 µM (inactive)", "> 100 µM (inactive)", "> 100 µM (inactive)"]
